- System: major CYP450 enzymes
- test-protocol: CYP450 inhibition
property: IC50

Entry under test: CC(=O)N1CCCn2nc(COc3ccccc3)cc21 [9a] . Its IC50 was > 30 µM
